experiment: blood-stage malaria parasite viability loss – strain 3D7, DAPI fluorescence, 100 nL, primary screen (AID 1184);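 also: parasites grown inside human red blood cells in medium with human serum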; conditions: P. falciparum 3D7 growth, 3 d, higher = more signal
Consider the following compounds and their measured z-score readings.
Enter a number only.

INSERT INTO measurements (compound, readout_value) VALUES
  ('CCC(CC)C(O)C1C=CC2C(=O)N(c3ccccc3)C(=O)C2N1Nc1ccccc1 (stereo not drawn)', 0.0789),
  ('C=C(CCCC)C(=O)CC[C@@H](OC(C)=O)c1ccc(CO)o1', -0.201),
  ('O=C1O[C@@H](c2ccccc2)[C@@H](c2ccccc2)N2[C@@H](c3ccc(OCCO)cc3)[C@]3(C(=O)Nc4ccc(C#CCCO)cc43)[C@@H](C(=O)NC[C@H](O)c3ccccc3)[C@H]12', -0.271),
  ('O=C1O[C@H](c2ccccc2)[C@H](c2ccccc2)N2[C@H]1[C@@H](C(=O)NC[C@H](O)c1ccccc1)[C@]1(C(=O)Nc3ccccc31)[C@H]2c1ccc(O)cc1', -0.834),
  ('O=C1C2C=CC(C(O)c3c(F)cccc3Cl)N(Nc3ccccc3F)C2C(=O)N1c1ccccc1 (stereo not drawn)', 0.562);

[Q] Entry under review: COCCCNC(=O)[C@@]1(CCS(=O)(=O)c2ccccc2)N=C(c2ccc(OCCCO)cc2)O[C@H]1c1ccccc1N=[N+]=[N-] . Reported z-score?
[A] -2.72

[Q] Next: CO[C@H]1O[C@H](CO)[C@@H](OC(=O)Nc2ccc(Oc3ccccc3)cc2)[C@H](OC(=O)Nc2ccc3c(c2)OCO3)[C@@H]1OC(=O)Nc1ccc2c(c1)OCO2
[A] -2.05

[Q] Now consider COCCCNC(=O)[C@]1(Cc2ccccc2)N=C(c2ccc(OCCCO)cc2)O[C@@H]1c1ccccc1CN=[N+]=[N-] .
[A] -2.33
